measurement-target: Leukotriene B4 receptor (Homo sapiens, UniProt Q9NPC1+Q15722)
measurement-description: Ability to inhibit LTB4 binding to LTB receptors on isolated human neutrophils.
Format: protein assay
reported-endpoint: IC50 (nM)

Observe how each entry below is paired with its result.
[[record]]
compound = "O=C(O)c1ccc(C(F)(F)F)cc1-c1ccc2c(c1)OC[C@H](Cc1ccc(-c3ccccc3)cc1)[C@H]2O (stereo in doubt; 27)"
assay_value = 27

[[record]]
compound = "O=C(O)c1c(F)cccc1-c1ccc2c(c1)OC[C@H](Cc1ccccc1)[C@H]2O (stereo in doubt; 13)"
assay_value = 11

[[record]]
compound = "O=C(O)c1ccc(Cl)cc1-c1ccc2c(c1)OC[C@H](Cc1ccc(C(F)(F)F)cc1)[C@H]2O"
assay_value = 400


[P] O=C(O)c1ccc(Cl)cc1-c1ccc2c(c1)OC[C@H](Cc1ccccc1)[C@H]2O (stereo in doubt; 6)
[Q] O=C(O)c1c(-c2ccc3c(c2)OC[C@H](Cc2ccccc2)[C@H]3O)cccc1C(F)(F)F
*Q* # min-compare on IC50 between P and Q Give the label of your selection.
*A* P

[1] O=S(=O)(Nc1ccc(F)cc1-c1ccc2c(c1)OC[C@H](Cc1ccccc1)[C@H]2O)C(F)(F)F (stereo in doubt; 38)
[2] O=C(O)c1ccc(F)cc1-c1ccc2c(c1)OC[C@H](Cc1ccccc1)[C@H]2O (stereo in doubt; 8)
*Q* Short answer wanted: higher IC50, 1 or 2 ? Label of pick, please.
*A* 2
(2: 12 nM, 1: 3.8 nM)

[1] CC(C)c1ccc(C[C@H]2COc3cc(-c4cc(F)ccc4C(=O)O)ccc3[C@@H]2O)cc1
[2] O=C(O)c1ccc(Cl)cc1-c1ccc2c(c1)OC[C@H](Cc1ccccc1)[C@H]2O (stereo in doubt; 5)
[3] OCc1ccc(C(F)(F)F)cc1-c1ccc2c(c1)OC[C@H](Cc1ccccc1)[C@H]2O
*Q* Ordering: ascending IC50. Form entry: ranked labels (order as requested).
*A* 2, 1, 3
(2: 12 nM, 1: 190 nM, 3: 1700 nM)

[I] NS(=O)(=O)c1ccc(F)cc1-c1ccc2c(c1)OC[C@H](Cc1ccccc1)[C@H]2O
[II] O=C(O)c1cc(F)ccc1-c1ccc2c(c1)OC[C@H](Cc1ccccc1)[C@H]2O
*Q* Larger number for IC50: I , or II ? Return value: the label identifying the chosen record.
*A* I
(I: 37 nM, II: 24 nM)

* * *

measurement-target: Leukotriene B4 receptor (Homo sapiens, UniProt Q9NPC1+Q15722)
measurement-description: Ability to inhibit LTB4 binding to LTB receptors on isolated human neutrophils.
Format: protein assay
reported-endpoint: IC50 (nM)

Some solved cases for reference:
[[record]]
compound = "O[C@H]1c2ccc(-c3cc(F)ccc3-c3nn[nH]n3)cc2OC[C@@H]1Cc1ccccc1"
measurement_target = "Leukotriene B4 receptor (Homo sapiens, UniProt Q9NPC1+Q15722)"
unit_label = "nM"
assay_value = 20

[[record]]
compound = "O=C(O)c1ccc(F)cc1-c1ccc2c(c1)OC[C@H](Cc1ccc(-c3ccccc3)cc1)[C@H]2O (stereo in doubt; 25)"
measurement_target = "Leukotriene B4 receptor (Homo sapiens, UniProt Q9NPC1+Q15722)"
unit_label = "nM"
assay_value = 14


[1] O=C(O)c1ccc(C(F)(F)F)cc1-c1ccc2c(c1)OC[C@H](Cc1ccccc1)[C@H]2O (stereo in doubt; 15) [CP-195543]
[2] O=C(O)c1ccc(C(F)(F)F)cc1-c1ccc2c(c1)OC[C@H](Cc1ccc(Cl)cc1)[C@H]2O
*Q* Look at 1 and 2 . Which one has the lower recorded IC50 number? Select an item and report its label.
*A* 1
(1: 13 nM, 2: 70 nM)

Data credit: ChEMBL document CHEMBL1130879
